Molecular target: Discoidin domain-containing receptor 2 (Homo sapiens, UniProt Q16832)
Sequence (Q16832 whole entry): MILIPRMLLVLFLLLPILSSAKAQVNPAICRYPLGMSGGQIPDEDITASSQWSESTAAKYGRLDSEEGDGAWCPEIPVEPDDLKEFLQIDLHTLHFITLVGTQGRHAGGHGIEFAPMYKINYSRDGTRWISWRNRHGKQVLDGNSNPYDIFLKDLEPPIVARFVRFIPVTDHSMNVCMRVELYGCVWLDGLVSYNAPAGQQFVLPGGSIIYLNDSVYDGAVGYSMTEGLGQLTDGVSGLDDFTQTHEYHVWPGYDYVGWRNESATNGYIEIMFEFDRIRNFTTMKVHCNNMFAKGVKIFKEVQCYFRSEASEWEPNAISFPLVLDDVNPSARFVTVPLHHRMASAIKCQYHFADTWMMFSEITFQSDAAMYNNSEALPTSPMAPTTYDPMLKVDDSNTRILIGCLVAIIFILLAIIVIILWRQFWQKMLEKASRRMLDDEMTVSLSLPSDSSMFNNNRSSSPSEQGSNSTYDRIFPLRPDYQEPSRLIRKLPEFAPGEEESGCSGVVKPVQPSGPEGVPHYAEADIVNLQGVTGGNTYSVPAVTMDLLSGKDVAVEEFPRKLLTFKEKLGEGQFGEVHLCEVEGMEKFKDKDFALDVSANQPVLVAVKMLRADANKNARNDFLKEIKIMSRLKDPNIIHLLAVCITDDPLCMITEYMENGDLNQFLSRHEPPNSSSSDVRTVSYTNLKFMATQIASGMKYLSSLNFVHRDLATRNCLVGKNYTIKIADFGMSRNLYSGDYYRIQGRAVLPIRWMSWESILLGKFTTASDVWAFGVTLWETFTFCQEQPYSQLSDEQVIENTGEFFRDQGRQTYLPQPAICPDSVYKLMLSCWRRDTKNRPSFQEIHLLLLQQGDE
Experiment: Inhibition of recombinant human DDR2 (467 to end residues) using KKSRGDYMTMQIG as substrate incubated for 40 mins in presence of [gamma-33ATP] by scintillation counting based radiometry assay
pIC50: −log10 of the molar value.
readoutLabel: pIC50

| chemSmiles | assayedSystem | readoutLabel | valueReported |
| --- | --- | --- | --- |
| CC(C)(C)c1cc(NC(=O)Nc2ccc(Nc3ncnc4c3OCCCN4)cc2)no1 | Discoidin domain-containing receptor 2 (Homo sapiens, UniProt Q16832) | pIC50 | 7.26 |

###

Biological target: Mitogen-activated protein kinase 12 (Homo sapiens, UniProt P53778)
Sequence (P53778 whole entry): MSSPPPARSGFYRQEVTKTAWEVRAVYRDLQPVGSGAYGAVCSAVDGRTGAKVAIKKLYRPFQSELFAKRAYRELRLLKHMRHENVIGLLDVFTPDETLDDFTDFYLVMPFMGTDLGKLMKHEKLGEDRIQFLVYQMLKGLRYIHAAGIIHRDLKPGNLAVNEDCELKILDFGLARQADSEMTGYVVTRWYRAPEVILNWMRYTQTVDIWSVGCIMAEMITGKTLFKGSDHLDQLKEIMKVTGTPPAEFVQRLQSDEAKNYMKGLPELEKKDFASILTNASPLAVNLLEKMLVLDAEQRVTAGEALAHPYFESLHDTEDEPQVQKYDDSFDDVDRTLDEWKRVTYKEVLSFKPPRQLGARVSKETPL
Assay: Inhibition of recombinant human full length SAPK3 using myelin basic protein as substrate incubated for 40 mins in presence of [gamma33P]ATP by scintillation counting based radiometry assay
pIC50: −log10 of the molar value.
readoutLabel: pIC50

| chemSmiles | assayedSystem | valueReported |
| --- | --- | --- |
| CC(C)(C)c1cc(NC(=O)Nc2ccc(Nc3ncnc4c3OCCCN4)cc2)no1 | Mitogen-activated protein kinase 12 (Homo sapiens, UniProt P53778) | 6.70 |
